Biological target: T1, Bzz1-2, P38822
T1 sequence (P38822 568-633, looked up): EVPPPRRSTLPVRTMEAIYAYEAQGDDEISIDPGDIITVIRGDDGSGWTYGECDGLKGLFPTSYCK
Experiment: SPOT array
Conditions: median of control spots 4538
Response field label takes MET when SPOT intensity is strictly below 2 and NOT MET in all other cases.

binder=NRPAIRIPSLKKPAL class=MET
binder=PVLPPPRSPNRPTLS class="NOT MET"
binder=LASNSPPVYPKRIRH class=MET
binder=VDFTLPPPPPPPGLD class=MET
binder=VPVAPPPPPASLGQS class=MET
binder=RKNRAPPQRPRFNRE class="NOT MET"
